Biological target: Epidermal growth factor receptor (Homo sapiens, UniProt P00533, C797S/EX19DEL/T790M)
Sequence (P00533 whole entry, looked up, stated change not applied): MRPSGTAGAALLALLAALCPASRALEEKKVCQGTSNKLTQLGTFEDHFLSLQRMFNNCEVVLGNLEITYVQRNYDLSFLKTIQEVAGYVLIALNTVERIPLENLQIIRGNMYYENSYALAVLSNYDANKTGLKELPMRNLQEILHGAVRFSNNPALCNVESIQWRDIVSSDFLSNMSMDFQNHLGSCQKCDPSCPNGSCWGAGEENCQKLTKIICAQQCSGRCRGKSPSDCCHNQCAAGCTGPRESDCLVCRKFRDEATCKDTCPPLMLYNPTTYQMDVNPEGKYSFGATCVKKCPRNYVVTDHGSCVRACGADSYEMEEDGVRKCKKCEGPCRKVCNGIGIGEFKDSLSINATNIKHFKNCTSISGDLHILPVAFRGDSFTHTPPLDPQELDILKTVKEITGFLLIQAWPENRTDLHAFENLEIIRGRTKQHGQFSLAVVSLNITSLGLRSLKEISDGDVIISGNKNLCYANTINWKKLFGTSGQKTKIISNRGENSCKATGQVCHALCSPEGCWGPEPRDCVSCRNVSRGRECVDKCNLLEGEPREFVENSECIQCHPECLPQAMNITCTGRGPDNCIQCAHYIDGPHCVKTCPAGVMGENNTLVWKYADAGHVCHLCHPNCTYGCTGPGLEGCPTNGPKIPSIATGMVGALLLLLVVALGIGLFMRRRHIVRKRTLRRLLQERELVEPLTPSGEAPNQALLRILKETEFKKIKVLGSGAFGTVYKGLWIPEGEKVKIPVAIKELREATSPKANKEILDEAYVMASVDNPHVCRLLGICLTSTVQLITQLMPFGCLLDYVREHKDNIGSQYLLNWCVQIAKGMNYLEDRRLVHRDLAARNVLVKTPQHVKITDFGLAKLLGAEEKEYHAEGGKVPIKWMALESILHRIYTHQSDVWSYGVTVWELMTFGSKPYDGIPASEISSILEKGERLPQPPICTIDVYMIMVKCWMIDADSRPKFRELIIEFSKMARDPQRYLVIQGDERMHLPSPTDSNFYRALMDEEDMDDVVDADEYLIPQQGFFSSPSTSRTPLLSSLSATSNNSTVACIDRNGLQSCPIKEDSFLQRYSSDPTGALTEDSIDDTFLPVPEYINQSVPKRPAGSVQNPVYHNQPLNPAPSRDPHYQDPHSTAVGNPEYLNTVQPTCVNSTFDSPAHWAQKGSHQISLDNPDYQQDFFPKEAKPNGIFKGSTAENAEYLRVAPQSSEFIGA
parameter.measured: IC50 (nM)

Guide cases for IC50, answers given:
[
  {
    "smiles.input": "CC(=O)Nc1nc(-c2ccc(F)cc2)c(-c2ccnc(Nc3ccc4c(ccn4CCN(C)C)c3)n2)s1",
    "subject.of.test": "Epidermal growth factor receptor (Homo sapiens, UniProt P00533, C797S/EX19DEL/T790M)",
    "parameter.measured": "IC50",
    "obs.value": 14
  },
  {
    "smiles.input": "CCS(=O)(=O)N1CCC(c2nc(-c3ccc(F)cc3)c(-c3ccnc(Nc4ccc(N5CCN(C)CC5)cc4)n3)s2)CC1",
    "subject.of.test": "Epidermal growth factor receptor (Homo sapiens, UniProt P00533, C797S/EX19DEL/T790M)",
    "parameter.measured": "IC50",
    "obs.value": 30
  }
]

[a] CCS(=O)(=O)N1CCC(c2nc(-c3ccc(F)cc3)c(-c3ccnc(Nc4ccc5c(ccn5CCN(C)C)c4)n3)s2)CC1
[b] CCS(=O)(=O)N1CCC(c2nc(-c3ccc(F)cc3)c(-c3ccnc(Nc4ccc(N5CCN(C)CC5)c(C)c4)n3)s2)CC1
Hi, I'm comparing two records. Which one has the lower IC50, a or b ? Your answer should be the label of the entry you select.
a
(a: 33 nM, b: 70 nM)
